Where do these numbers come from? They come from a collection of fitness landscapes (doi:10.1016/j.celrep.2020.107928).

B1: Caulobacter ParB omega fusion; a variant is named by its letters at X, in order, B8GW30 (parent)
chain: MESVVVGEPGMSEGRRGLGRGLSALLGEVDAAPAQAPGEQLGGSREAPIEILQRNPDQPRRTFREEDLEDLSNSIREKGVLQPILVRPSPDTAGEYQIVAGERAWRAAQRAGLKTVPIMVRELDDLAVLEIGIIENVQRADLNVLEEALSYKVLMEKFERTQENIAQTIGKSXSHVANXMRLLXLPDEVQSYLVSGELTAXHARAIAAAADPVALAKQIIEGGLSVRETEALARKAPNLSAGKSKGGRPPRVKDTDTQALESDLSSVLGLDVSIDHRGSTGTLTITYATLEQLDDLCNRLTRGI

Variants of: B1
procedure summary: one-hybrid fitness for binding parS DNA (scaled: cognate 1, non-cognate 0); higher = stronger binding
condition details: with parS DNA site
Whole data set: some 81,000 sequences, median “one-hybrid fitness for binding parS DNA” near -0.17, cut for the highest 2% near 0.51. For the sample, the highest values were picked, then their nearest neighbours and some sequences at random.
test readout: one-hybrid fitness for binding parS DNA

[in] Indicate its recorded one-hybrid fitness for binding parS DNA; the variant in question is RQQA
[out] 0.548

[in] State its one-hybrid fitness for binding parS DNA for this variant: RVCA
[out] 0.608

[in] Output one-hybrid fitness for binding parS DNA of RVWG
[out] 0.982

[in] Entry RYAQ needs its one-hybrid fitness for binding parS DNA filled in; supply it.
[out] ≤ 0.2

[in] Output measured one-hybrid fitness for binding parS DNA for this item: RCYW
[out] 0.314

[in] In one line, give reported one-hybrid fitness for binding parS DNA of the entry RVSM .
[out] 0.347

[in] Item RVSR : provide one-hybrid fitness for binding parS DNA
[out] ≤ 0.2

[in] Give the measured one-hybrid fitness for binding parS DNA for RVDK
[out] ≤ 0.2

[in] Give the measured one-hybrid fitness for binding parS DNA for VVHY
[out] ≤ 0.2

[in] State, in one line, measured one-hybrid fitness for binding parS DNA of RAIV
[out] ≤ 0.2

[in] Let me know recorded one-hybrid fitness for binding parS DNA for RGFW , thanks.
[out] ≤ 0.2

[in] Identify one-hybrid fitness for binding parS DNA associated with the variant RQIA
[out] 0.42

[in] # return recorded one-hybrid fitness for binding parS DNA for entry ARLT
[out] ≤ 0.2

[in] Consider the variant RWTQ . State its measured one-hybrid fitness for binding parS DNA.
[out] ≤ 0.2

[in] Please report the measured one-hybrid fitness for binding parS DNA for NVCA
[out] ≤ 0.2

[in] Indicate the recorded one-hybrid fitness for binding parS DNA value for this variant: CRRI
[out] ≤ 0.2

[in] Name the recorded one-hybrid fitness for binding parS DNA of the variant listed here: RMCL
[out] ≤ 0.2

[in] Look up and report measured one-hybrid fitness for binding parS DNA for this entry: RWTG
[out] 0.824

[in] Quote one-hybrid fitness for binding parS DNA reported for ETVR please.
[out] ≤ 0.2

[in] Dear colleague, please send me the reported one-hybrid fitness for binding parS DNA for KDMG when you can.
[out] ≤ 0.2

[in] State, in one line, measured one-hybrid fitness for binding parS DNA of RSCT
[out] 0.809

[in] Note down one-hybrid fitness for binding parS DNA recorded for RSCM
[out] 0.347

[in] Give the reported one-hybrid fitness for binding parS DNA for this variant. RYFY
[out] 0.43

[in] Name the recorded one-hybrid fitness for binding parS DNA of the item RECT in your answer.
[out] ≤ 0.2

[in] Please look at this variant and report its one-hybrid fitness for binding parS DNA: RQYA
[out] 0.583

[in] State, in one line, measured one-hybrid fitness for binding parS DNA of RVWP
[out] ≤ 0.2

[in] Give the value of one-hybrid fitness for binding parS DNA reported for the following: ELIG
[out] ≤ 0.2

[in] Using known records, supply one-hybrid fitness for binding parS DNA for SPRE
[out] ≤ 0.2

[in] Annotate the variant RCTV with its measured one-hybrid fitness for binding parS DNA.
[out] ≤ 0.2

[in] Give me measured one-hybrid fitness for binding parS DNA, please, for this variant: NQHA
[out] ≤ 0.2

[in] Return value of one-hybrid fitness for binding parS DNA for input RPCY , no commentary.
[out] ≤ 0.2

[in] Specify measured one-hybrid fitness for binding parS DNA for RYAY .
[out] 0.425

[in] Tell me its one-hybrid fitness for binding parS DNA given RDCT as the entry.
[out] ≤ 0.2

[in] For the variant PQHA , give its reported one-hybrid fitness for binding parS DNA.
[out] ≤ 0.2

[in] Dear colleague, please send me the reported one-hybrid fitness for binding parS DNA for RVSG when you can.
[out] 0.999

[in] Look up and state reported one-hybrid fitness for binding parS DNA for RCCT
[out] 0.913

[in] Report one-hybrid fitness for binding parS DNA for SPEV
[out] ≤ 0.2

[in] Quickly give me recorded one-hybrid fitness for binding parS DNA for RYAG
[out] 0.982

[in] Tell me one-hybrid fitness for binding parS DNA reported for RTCF
[out] 0.252

[in] Supply measured one-hybrid fitness for binding parS DNA of NQKA in your reply.
[out] ≤ 0.2

[in] Identify one-hybrid fitness for binding parS DNA associated with the variant RVWH
[out] ≤ 0.2

[in] Give a short answer stating reported one-hybrid fitness for binding parS DNA for YCGR .
[out] ≤ 0.2

[in] Read the entry RWTR and write its reported one-hybrid fitness for binding parS DNA.
[out] ≤ 0.2

[in] Respond only with one-hybrid fitness for binding parS DNA recorded for TIPM
[out] ≤ 0.2

[in] Input RTCT , output reported one-hybrid fitness for binding parS DNA.
[out] 0.917

[in] Look up and state reported one-hybrid fitness for binding parS DNA for RVWI
[out] ≤ 0.2
